# measurement.protocol: basal 3T3-L1 adipocyte mitochondrial potential changes, profiling panel, cell-based, JC-1 fluorescence, 3T3-L1 adipocytes, 24 h, 100 nL compound (AID 1168); note: test concentration not given here
# condition.label: JC-1 mitochondrial fluorescence, higher = more signal, called active from +8 up or from −8 down
Calls of active or inactive are those of the source.
measured.endpoint: z-score

Use the examples below as a reference point.
[
  {
    "compound": "COc1ccc(CCNC(=O)[C@@H]2c3ccccc3C(=O)N(Cc3cc(C(F)(F)F)cc(C(F)(F)F)c3)[C@H]2c2ccc(CO)cc2)cc1",
    "z-score": "-0.497 (inactive)"
  },
  {
    "compound": "N#Cc1ccc(C(O)C2C=CC3C(=O)N(c4ccccc4)C(=O)C3N2Nc2ccccc2)cc1 (configuration not stated)",
    "z-score": "0.693 (inactive)"
  },
  {
    "compound": "CC1CC/C=C\\[C@H]2OC34C=CCN(C(C)C)C(=O)[C@H]3N(CCCCCCO)C(=O)[C@@H]4C2C(=O)O1 (some centres not stated)",
    "z-score": "-0.0814 (inactive)"
  }
]

Fill in reported z-score for this entry: C=C(COC)C(=O)CC[C@@H](OC(=O)c1cccnc1)c1ccc(OCCO)cc1
0.42 (inactive)

Return z-score for the following compound: [N-]=[N+]=NCc1ccccc1[C@@H]1OC(c2ccc(OCCCO)cc2)=N[C@]1(CCS(=O)(=O)c1ccccc1)C(=O)NCC(O)CO (some centres not stated)
0.0693 (inactive)

Assign z-score to the following record: NC(=O)N1C(=O)C2C(C1=O)C1C=C(CCCO)C2C(c2cccs2)N1Cc1cccc(OC(F)(F)F)c1 (configuration not stated)
-0.678 (inactive)

Look up z-score of CC(C)(C)N1CC=CC23O[C@@H]4C=CCCOC(=O)C4[C@H]2C(=O)N(CCO)[C@@H]3C1=O (some centres not stated) and report it.
-1.46 (inactive)
